System: HPK1 (Homo sapiens (Human), UniProt Q92918) | Read-out: IC50 | Origin: multiple publications
Sequence (Q92918 whole entry): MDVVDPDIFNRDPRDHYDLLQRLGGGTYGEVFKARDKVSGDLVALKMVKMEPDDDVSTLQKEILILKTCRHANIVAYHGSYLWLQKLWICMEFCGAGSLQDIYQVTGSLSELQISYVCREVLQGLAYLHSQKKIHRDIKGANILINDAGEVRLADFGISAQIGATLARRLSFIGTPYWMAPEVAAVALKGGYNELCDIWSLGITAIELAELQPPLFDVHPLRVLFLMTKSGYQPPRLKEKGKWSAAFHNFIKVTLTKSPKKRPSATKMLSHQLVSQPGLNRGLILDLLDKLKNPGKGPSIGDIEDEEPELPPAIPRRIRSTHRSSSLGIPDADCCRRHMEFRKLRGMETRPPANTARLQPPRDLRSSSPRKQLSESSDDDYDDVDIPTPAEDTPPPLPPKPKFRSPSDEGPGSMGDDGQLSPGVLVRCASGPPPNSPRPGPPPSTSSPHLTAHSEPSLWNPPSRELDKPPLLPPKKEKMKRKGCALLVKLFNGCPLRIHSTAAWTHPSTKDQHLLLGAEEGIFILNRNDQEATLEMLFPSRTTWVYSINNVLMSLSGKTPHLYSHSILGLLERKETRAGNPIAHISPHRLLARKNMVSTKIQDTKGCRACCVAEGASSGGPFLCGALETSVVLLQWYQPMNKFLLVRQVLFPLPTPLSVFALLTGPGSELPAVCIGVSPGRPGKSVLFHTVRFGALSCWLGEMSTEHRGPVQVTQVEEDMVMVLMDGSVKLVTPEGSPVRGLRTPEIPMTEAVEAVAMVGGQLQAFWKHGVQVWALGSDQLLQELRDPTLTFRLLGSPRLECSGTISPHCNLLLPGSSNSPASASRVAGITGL
Threshold check on IC50: strictly below 70 nM is TRUE; on or above 70 nM is FALSE.

Sample answers from the record:
O=C1NCc2c(-c3cnc4cc(F)ccn34)ccc(Nc3cccc(O[C@H]4CCC[C@H]4O)n3)c21 (stereo in doubt) : FALSE
Cc1c(-c2cc3nc(Nc4cnn([C@@H]5CCN(C)C5)c4)ncc3c(N)c2F)cnc2c1NCCO2 : TRUE
Cc1cc(Nc2ncc(C(N)=O)c(Nc3cccc4c3CCNC4=O)n2)cc(C(F)(F)F)c1 : TRUE
Cc1c(-c2cc3nc(Nc4ccccc4OC(F)(F)F)ncc3c(N)c2F)cnc2c1NCCO2 : FALSE
Cc1c(-c2cc3nc(Nc4ccc(CS(=O)(=O)CC(F)(F)F)cc4)ncc3c(N)c2F)cnc2c1NCCO2 : TRUE

Would you kindly verify if IC50 of `COc1cc2c(cc1Nc1ncc(C(N)=O)c(NCc3ccccc3)n1)CN(C)CC2` is strictly less than 70 nM?
TRUE

Would you kindly verify if IC50 of CN1CCN2c3ccc(-c4n[nH]c5cc(C#N)c(-c6cccc(P(C)(C)=O)c6F)cc45)cc3OCC2C1 (stereo not drawn) is strictly less than 70 nM?
TRUE

Would you kindly verify if IC50 of `COc1cc2c(cc1Nc1ncc3ccc(-c4cnccc4C)cc3n1)CN(C)CC2` is strictly less than 70 nM?
TRUE

Would you kindly verify if IC50 of `COc1cc2c(cc1Nc1ncc(C(N)=O)c(Nc3cccc4c3CCN(CC(C)(C)O)C4)n1)CN(C)CC2` is strictly less than 70 nM?
TRUE
